# System: 282377-053-R-J1-PDC complex spheroid viability;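 further: spheroids exposed to compounds for seven days; 100% = DMSO vehicle control viability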
# ASSAY NAME: Anticancer human tumor 282377-053-R-J1-PDC patient-derived colon adenocarcinoma cell line growth inhibition [POLQ]
# APPLIED CONDITIONS: second compound 0.316 µM; first compound 0.0316 µM; hits give low values
Would you kindly list viability, T/C for each of these compounds?
# value in %; strip the unit string

// sample COc1cccc2c1C(=O)c1c(O)c3c(c(O)c1C2=O)CC(O)(C(=O)CO)CC3OC1CC(N)C(O)C(C)O1 (stereo unspecified) + Nc1ccc(C#CCN(C(=O)Cc2ncc(C(F)(F)F)cc2C(F)(F)F)c2ccc(F)cc2)nn1 , its viability, T/C was 92.8

// sample CC1COCCN1c1cc(-c2ccnn2C)c2ccnc(-c3ccn[nH]3)c2n1 (stereo unspecified) + Nc1ccc(C#CCN(C(=O)Cc2ncc(C(F)(F)F)cc2C(F)(F)F)c2ccc(F)cc2)nn1 , its viability, T/C was 91

// sample CNCc1ccc(-c2[nH]c3cc(F)cc4c3c2CCNC4=O)cc1 + Nc1ccc(C#CCN(C(=O)Cc2ncc(C(F)(F)F)cc2C(F)(F)F)c2ccc(F)cc2)nn1 , its viability, T/C was 95.7

// sample COc1ccc([C@@H](O)c2cc(-c3ncnc4cc(N5CCOCC5)ccc34)c(F)cc2Cl)nn1 + COC1C(OC(N)=O)C(O)C(Oc2ccc3c(O)c(NC(=O)c4ccc(O)c(CC=C(C)C)c4)c(=O)oc3c2C)OC1(C)C , its viability, T/C was 96.5

// sample C#Cc1c(F)ccc2cc(O)cc(-c3ncc4c(N5CC6CCC(C5)N6)nc(OCC56CCCN5CC(F)C6)nc4c3F)c12 (stereo unspecified) + Nc1ccc(C#CCN(C(=O)Cc2ncc(C(F)(F)F)cc2C(F)(F)F)c2ccc(F)cc2)nn1 , its viability, T/C was 97.1

// sample CCc1cc2c(N3CCc4c(cc(Cn5ccnc5)cc4-c4cn(C)nc4C(F)(F)F)C3=O)ccnc2c(OC)n1 + Cc1cccc(N(C)C(=O)C2C(O)CCN2c2nc(C)cc(C(F)(F)F)c2C#N)c1 , its viability, T/C was 95

// sample COc1cccc2c1C(=O)c1c(O)c3c(c(O)c1C2=O)CC(O)(C(=O)CO)CC3OC1CC(N)C(O)C(C)O1 (stereo unspecified) + Cc1cccc(N(C)C(=O)C2C(O)CCN2c2nc(C)cc(C(F)(F)F)c2C#N)c1 , its viability, T/C was 104

// sample O=C(c1cc(Cc2n[nH]c(=O)c3ccccc23)ccc1F)N1CCN(C(=O)C2CC2)CC1 + Nc1ccc(C#CCN(C(=O)Cc2ncc(C(F)(F)F)cc2C(F)(F)F)c2ccc(F)cc2)nn1 , its viability, T/C was 113

// sample Cn1ncnc1[C@H]1c2n[nH]c(=O)c3cc(F)cc(c23)N[C@@H]1c1ccc(F)cc1 + Cc1cccc(N(C)C(=O)C2C(O)CCN2c2nc(C)cc(C(F)(F)F)c2C#N)c1 , its viability, T/C was 111

// sample CC1COCCN1c1cc(C2(S(C)(=N)=O)CC2)nc(-c2ccnc3[nH]ccc23)n1 (stereo unspecified) + COC1C(OC(N)=O)C(O)C(Oc2ccc3c(O)c(NC(=O)c4ccc(O)c(CC=C(C)C)c4)c(=O)oc3c2C)OC1(C)C , its viability, T/C was 103

// sample O=c1[nH]cc(F)c(=O)[nH]1 + Nc1ccc(C#CCN(C(=O)Cc2ncc(C(F)(F)F)cc2C(F)(F)F)c2ccc(F)cc2)nn1 , its viability, T/C was 118

Just for reference, PubChem BioAssay AID1963852 is where these values come from.
